Listed next: entries and their corresponding CC50 at 5 days.
Test: RSV long CPE assay (cytopathic effect assay), CC50 toxicity in vitro
Format: cell-based
Conditions: human, Hep2 cells, CCK-8 readout, top concentration 100 μM
Quantity measured: CC50 at 5 days

INSERT INTO measurements (entry_smiles, quantity_measured, measured_result) VALUES
  ('CC(C)OC(=O)N1CC2(C1)C(=O)N(Cc1nc3c(n1/C=C(\F)C(C)C)CCCC3)c1ccccc12', 'CC50 at 5 days', '> 100 µM'),
  ('CCOC(=O)N1CC2(C1)C(=O)N(Cc1nc3c(n1CCCC(F)(F)F)CCCC3)c1ccccc12', 'CC50 at 5 days', '> 100 µM'),
  ('CC(C)S(=O)(=O)N1CC2(C1)C(=O)N(Cc1nc3c(n1CCCC(F)(F)F)CCCC3)c1ccccc12', 'CC50 at 5 days', '> 100 µM'),
  ('CC(C)OC(=O)N1CC2(C1)C(=O)N(Cc1nc3c(n1CCCC(F)(F)F)CCCC3)c1ccccc12', 'CC50 at 5 days', '> 100 µM'),
  ('CCOC(=O)N1CC2(C1)C(=O)N(Cc1nc3c(n1CCCS(C)(=O)=O)CCCC3)c1ccccc12', 'CC50 at 5 days', '> 100 µM'),
  ('O=C(C1CC1)N1CC2(C1)C(=O)N(Cc1nc3c(n1CCCC(F)(F)F)CCCC3)c1cnccc12', 'CC50 at 5 days', '> 100 µM'),
  ('CC(C)OC(=O)N1CC2(C1)C(=O)N(Cc1nc3c(n1CCCC(F)(F)F)CCCC3)c1cnccc12', 'CC50 at 5 days', '> 100 µM'),
  ('CC(C)OC(=O)N1CC2(C1)C(=O)N(Cc1nc3c(n1CCCC(F)(F)F)CCCC3)c1ccc(Br)cc12', 'CC50 at 5 days', '> 100 µM'),
  ('CC(C)OC(=O)N1CC2(C1)C(=O)N(Cc1nc3c(n1CCCC(F)(F)F)C(=O)CCC3)c1ccccc12', 'CC50 at 5 days', '> 100 µM'),
  ('CC(C)OC(=O)N1CC2(C1)C(=O)N(Cc1nc3c(n1CCCC(F)(F)F)CCCC3)c1cc(Cl)ccc12', 'CC50 at 5 days', '> 100 µM'),
  ('CC(C)OC(=O)N1CC2(C1)C(=O)N(Cc1nc3c(n1CCCCO)CCCC3)c1ccc(Br)cc12', 'CC50 at 5 days', '> 100 µM'),
  ('CCC(=O)N1CC2(C1)C(=O)N(Cc1nc3c(n1CCCC(F)(F)F)CCCC3)c1ccccc12', 'CC50 at 5 days', '> 100 µM'),
  ('O=C(C1CC1)N1CC2(C1)C(=O)N(Cc1nc3c(n1CCCC(F)(F)F)CCCC3)c1ccccc12', 'CC50 at 5 days', '> 100 µM'),
  ('CC(C)OC(=O)N1CC2(C1)C(=O)N(Cc1nc3c(n1CC(F)(F)CCF)CCCC3)c1ccccc12', 'CC50 at 5 days', '> 100 µM'),
  ('CC(C)OC(=O)N1CC2(C1)C(=O)N(Cc1nc3c(n1CC(F)(F)C(C)C)CCCC3)c1ccccc12', 'CC50 at 5 days', '> 100 µM');

====

Assay: RSV long CPE assay (cytopathic effect assay), CC50 toxicity in vitro
Format: cell-based
Conditions: human; Hep2 cells, 5 days, CCK-8 readout; top concentration 100 μM
Quantity measured: CC50

INSERT INTO measurements (molecule, quantity_measured, measured_result) VALUES
  ('CC(C)OC(=O)N1CC2(C1)C(=O)N(Cc1nc3c(n1CCCCO)CCCC3)c1cccc(Cl)c12 [Embodiment 85]', 'CC50', '> 100 µM');
